Ref: the supplement of paper PMC9170038

For each entry below, report its apparent KD of K4 kissing-loop reporter value.
Tested on: K4 kissing-loop RNA reporter;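 also: bound reporter read as fluorescence of individual clusters on recovered sequencing chips by microscopy, with normalized cluster intensities fitted with a binding model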
assay comment: apparent KD of K4 kissing-loop reporter; higher = weaker reporter binding
test settings: Eterna round: R107; input ligand: arginine 13.2 mM
One number for each entry, in nM.

Consider the reported apparent KD of K4 kissing-loop reporter for these sequences:
entry sequence	result unit	apparent KD of K4 kissing-loop reporter
AAAUUCUUUUUUUUAUUUAACUUUUCAGAAGGAGCGUGGUAGUUCACAGGUAGGUCGCUGAAUUUUGGACUAGUGAUGUUAGUUA [JR_SSArginiA_Sub006]	nM	214
AAAAUAAUCCAGUGAUGUUGGUAUCCAGAUACCAGCCAGGAAACUGGCCCUUGGCAGCUGUGGACGUACAAAAUAAGUACGUCCU [#OpenEnded 10 #StaticStem #K4Early]	nM	268
GGCAUGCGUAGAGUGAUGUUCUAAGAUGAUACCAGUGCGGAAACGCACCCUUGGCAGCAUCUGACUGGCAUGCCGGCGAAAGCCU	nM	811
GUAUCGCUAGGAGGAUAUUUCAAUUCGCCUAUAAUAGGUGAUACGGAGUGAUGUUCCGAUUUACGGAAAGAAGGCCUAGUGAUAC [FMN B 10]	nM	229
CGAGUGAUGUUCGUUCGUUUAUUUCGUUGACAGGAUAUGCGGAAACGCAGAAGGGUCACCUUUGAGUUAACGGAAUUUACGUUAU [Ex FMN A 27]	nM	487
CUCGAGUGAUGUUCGAUUAUGUAUACAGAUACCAGUGAAUUUUAACACCCUUGGCAGCUGGUAGAAUCUUUGUAAUUUUAACUAG [JR_ExcTheophyA_Sub002]	nM	253
CGGAUGUAGUGAUGUUAUAUAAGAUGUAGACGAGGACCGGUACGGCCGCCACUCGAAACGGCUACUAGCGCGUUGCGAGGUGUGC [ExTryptoA.CI]	nM	460
AAGAGCUAGGCGGCCGCCACUAGUUGUGAACACAUACAAGCCAGUGAUGUUGGUAUGGUGGACGGUAGGACCGGGCCUAGCUGAA [Exclusion - Tryptophan B (Freestyle 16)]	nM	229
UUAUGUUUAGUUCACCCAGUGAUGUUGGAAGGAGCGUGCGAAAGCACAGGUAGGUCGCCAACCUUAAAGUGUCUUGAUUAUCUAA [JR_Nu_ExcArginiA_Sub029]	nM	499
UUAGCCCUAUAGGGCAAGACCUAUACUGAUACCAGAGGGUAUACCCUCCCUUGGCAGCGGAUCGAGUGAUGUUCGUAAGGUCAUU [AK4.4 SS Theophylline A]	nM	730

Would you mind giving apparent KD of K4 kissing-loop reporter for every sequence in the list below?
1. AGUGAUGUGGGAAGGAGCGCUAGUACACUUCAGUGAUGUUGAAGUGAUGAAUUAGUGUAUUGGCAGGUAGGUCGCCUAGAUGUUA [KL-XARG-B14]
2. UACCCGUGCUACUCCAUCCAUGCCACACCGCGAGGACCGGUACGGCCGCCACUCGUCGGAAAGUGAUGUUUUCAAACAAAGUUGC

// result
[59.1, 93.4]

====

Tested on: MS2 coat protein
assay comment: apparent KD of MS2 coat protein; designed switch direction (-1 OFF switch, 1 ON switch): -1; higher = weaker reporter binding
test settings: input ligand: FMN 200 uM
Class (by apparent KD of MS2 coat protein) -- lower = under 40 nM, middle = from 40 nM up to 200 nM, upper = 200 nM and over

entry sequence	subject of test	cat
AUUUUGUGAGGAUAUUAGUAGUAAAUGAAUAAAAUUAUUACUGAGAAGGCACAUGAGGAUCACCCAUGUUCCUA [Mat - Exclusion 4 - Eli Mod - D7] (Eterna round: R97, puzzle: Exclusion 4)	MS2 coat protein	middle
ACAUGUCAUUGAGGAUAUUGCACACAUGAGGAUCACCCAUGUAUACGGUUGCUCUUACGUGAGUUCGAGAAGGCGAUGUACAUU [Ex NG2 #88] (Eterna round: R96, puzzle: Exclusion NG 2)	MS2 coat protein	middle
AGCUUUUUGUUCGUCUUAUACAUGAGGAUCACCCAUGUAUUGGACCGCAUCGAUAGAUGUAGACCGAGAAGCAUGGG [Omdei Mir OFFv1 C6] (Eterna round: R97, puzzle: Sensor, turn-off variant 1)	MS2 coat protein	middle

// query Assign a bin to UUAUUGUUAGAGGAUAUAUUAAGGUAUGCUUUGAUAGAAGGCUAUACAUGAGGAUCACCCAUGUUUUUUGGGAU [JR_Ex6_Sub076] (Eterna round: R97, puzzle: Exclusion 6)
// result upper

// query And for UAACAUGUACAAGGAUAUCAGCACGAUUAGUGCUGAGAAGGUGUAACAUGAGGAUCACCCAUGUAGAUCAUUAAUUAAUUAAUU [ENG1/9-B1] (Eterna round: R96, puzzle: Exclusion NG 1) ?
// result upper

// query And for GCCGAAAAUGUGAGGAUAUACCUAUGGAAACAUAGGUAGAAGGCACAUGAGGAUCACCCAUGUCCAAUAACGGC [Mat - Exclusion 4 - Eli Mod - D25] (Eterna round: R97, puzzle: Brourd's mod of Exclusion 4) ?
// result upper

// query And for ACAAGCUUUUAGAUUUUCAACAUGAGGAUCACCCAUGUUCGUCUUGUGCUCGGGCUUGGGCGGUGUCCGGGUUUGGG [JL TOV1 3.77 sellena mod] (Eterna round: R97, puzzle: Sensor, turn-off variant 1) ?
// result lower

// query And for UGAGUGCUGCGAGGAUAUACAUGAGGAUCACCCAUGUAAGCCUGUGAGGCUUUGCCUCACAGGAUGUAGAAGGCGCAGUACUCU [JL ENG2 1.17] (Eterna round: R96, puzzle: Exclusion NG 2) ?
// result lower

// query And for AUGAGGUUAGGAUAUACAUGAGGAUCACCCAUGUUGGAGAAGGAAAUGUAAGUAGCGAGUAGAAGGAACGGAGC [JR_Exclu3_Sub059] (Eterna round: R96, puzzle: Exclusion 3) ?
// result middle

// query And for UCGUAGUCAGGAUAUACAUGAGGAUCACCCAUGUAAAAUUUUAAUUUAAUUUUAAGGUGUAGAAGGGACCAUUU [Ex3 #21] (Eterna round: R97, puzzle: Exclusion 3) ?
// result middle

// query And for AAGAAACAGCUAGGAUAUCAGACCAACAUGAGGAUCACCCAUGUCAAGGUCUUUCUUAGUAGGUUUGAGAAGGAGCCAUAAAUA [Xelequriqu] (Eterna round: R96, puzzle: Exclusion NG 2) ?
// result lower

====

For each entry below, report its apparent KD of MS2 coat protein value.
Tested on: MS2 coat protein
assay comment: apparent KD of MS2 coat protein; designed switch direction (-1 OFF switch, 1 ON switch): 1; higher = weaker reporter binding
test settings: Eterna round: R98; input ligand: FMN 200 uM
Answers are plain numbers, in nM.

entry sequence	experimental endpoint	result unit	result number
GUAGCAUACCGAGGAUAUUCAGAGAAUAAAUAAACAUGAGGAUCACCCAUGUGGCGAAAGCCUAGGGAGAAGGCGGAAUGCUAC [salish99_SSNG2_r2_208]	apparent KD of MS2 coat protein	nM	25.3
GCCACAUGAGGAUCACCCAUGUACGGUUCCGUCUCAUUAGUGCAGGAUAUGUUCACCGGAAGUGUGCAGAAGGGUAAAAGUGGG [Onar]	apparent KD of MS2 coat protein	nM	209
GUCGAAUUCUUAGGAUAUCGAGUGGAUAACACUCGAGAAGGAAGAUAUACCUGAGGAUCACCCAGGUUAAACUGAACGACAAUA [Same State NG1 - A3C, U17G Submission 7D]	apparent KD of MS2 coat protein	nM	17.5
UCACUCACGUCAGGAUAUGGAUCGGAAAACGAUCCAGAAGGGACCUGCAAACCUGAGGAUCACCCUGGUUCCAAUAACGAGUGA [SameSame 10 - Jieux - Same State NG 1]	apparent KD of MS2 coat protein	nM	133

Would you mind giving apparent KD of MS2 coat protein for every sequence in the list below?
1. CAUGAAGGGUGAGGAUAUGCACAGGAUCACCGUGUAGAAGGCAUCAGGUAGAAGGUGCAGAGGAUCACCCUGUAAGGAUAUAUC [pwkr2 ssNG1 DX.16]
2. GUAGCAUACCGAGGAUAUUCAUAUAAUAAAUAAACAUGAGGAUCACCCAUGUGGCGAAAGCCUAGGGAGAAGGCGGAAUGCUAG [salish99_SSNG2_r2_003]

// result
1: 482; 2: 22.1

====

System: MS2 coat protein
assay comment: apparent KD of MS2 coat protein; designed switch direction (-1 OFF switch, 1 ON switch): 1; higher = weaker reporter binding
test settings: input ligand: none
experimental endpoint: apparent KD of MS2 coat protein (nM)
One number for each entry, in nM.

Consider the reported apparent KD of MS2 coat protein for these sequences:
entry sequence	subject of test	apparent KD of MS2 coat protein (nM)
GGAUGAUAGACAGGAUAUUGAUUGUAAUUAGGUCAAGAAGGGUCUUUGAUUUAAACGACCAGUUACAUGAGGAUCACCCAUGUU [JR_SSNG1_Sub028] (Eterna round: R96, puzzle: Same State NG 1)	MS2 coat protein	201
AUUUUGAAUGCAGGAUAUGAUUAACAUGAGGAUCACCCAUGUGGUGUUGUGAGUAAGGAGAGUGAUCAGAAGGGCAUUUUUUUU [JMF's solution 96] (Eterna round: R96, puzzle: Same State NG 2)	MS2 coat protein	445

Would you mind giving apparent KD of MS2 coat protein for every sequence in the list below?
1. CGUCGUUUGAUAGGAUAUCGCUUUACAUGAGGAUCACCCAUGUUUACCUCGCUGGUUUUUCUUUCCGAGAAGGAUUCUGAUGUU [salish99_SSNG02_r04_030] (Eterna round: R96, puzzle: Same State NG 2)
2. ACGCCUAAACGGCGAAAACGACAUGAGGAUCACCCAUGUACACAGGAUAUCAGCCUGCAACAGGCUGAGAAGGGUGAACCUAAA [Atatmadiar] (Eterna round: R96, puzzle: Same State NG 3)
3. GAGGGACAGACCAACAUGAGGAUCACCCAUGUCCUCGCAGGUCAGGAUAUCCCGCCAACAGGCGAGGAGAAGGGACGGUGAACC (Eterna round: R96, puzzle: Same State NG 3)
4. UGAAUAGUUACAGGAUAUGAGCCGUAAAUUGGGUCAGAAGGGUGGGUGUUCUGCGCGGUGUGUUACAUGAGGAUCACCCAUGUU [SameState NG1 #30] (Eterna round: R96, puzzle: Same State NG 1)
5. GUGGUCAGACAUGAGGAUCACCCAUGUGGAAUAAAUAAGGUCAAGGAUAUGGAAUAUAGGAUAUACCAGAAGGUGAGGUUGGUG (Eterna round: R96, puzzle: Same State NG 3)
6. UUGAAGAAUUAAGGAUAUUGAAUACAUAUGUUUAACAUGAGGAUCACCCAUGUGGGUUGCGGUAUCGAGAAGGUAAAUAAAUAG [Mat - Same State NG 2 - JL mod - D3] (Eterna round: R96, puzzle: Same State NG 2)
7. GGUCGAAACCACAUGAGGAUCACCCAUGUUCCGGAAACGGCGCAGGAUAUCUGUCCGAAAAGGUCAGAGAAGGGUGAAACGACC [Fiskers NG3ss - 79] (Eterna round: R96, puzzle: Same State NG 3)

// result
[40.4, 155, 713, 244, 225, 159, 944]

Would you mind giving apparent KD of MS2 coat protein for every sequence in the list below?
1. UUUAUAUUCAGAGGAUAUUGAUGUUGUAUUUUACAAGAAGGCUGAUUGUUUUGUAAUGUUAUUAAACAUGAGGAUCACCCAUGU [JR_SSNG1_Sub013] (Eterna round: R96, puzzle: Same State NG 1)
2. AACAUGAGGAUCACCCAUGUCAGGCCGCCGGCCUACAUGAGGAAGGAUAUAGCCUCGAAAAUAGGCUAGAAGGUCCUCAUGAAU [Orises] (Eterna round: R96, puzzle: Same State NG 3)
3. GCUCGGAUGAUGGCCCACAUGAGGAUCACCCAUGUGCGUGGGCAGGAUAUCUAGAUUAAGGAUGUAGAGAAGGGCCUACCGAGC [SameState NG3 #33] (Eterna round: R96, puzzle: Same State NG 3)
4. CUACAGGCCAGAGGAUAUGGGAAAGGAAGUGUACCAGAAGGUUGGCCUCCUGAGUACAUGAGGAUCACCCAUGUAGAAAGGCGA [PowerStrip SSNG 1.6] (Eterna round: R96, puzzle: Same State NG 1)
5. GCUAGUAUAAUUGUCAACAUGAGGAUCACCCAUGUAUGUUGGCAGGAUAUCGUUUGCAAAGCAAACGAGAAGGGCUAAACUAGC [Mat - Same State NG 3 - JL Mod - D11] (Eterna round: R96, puzzle: Same State NG 3)
6. GCUCGAUGAGCUGUUUACAUGAGGAUCACCCAUGUAGAUGCGGAGGAUAUCUACGUGCUUUAUGUAGAGAAGGCCGUAUCGAGC [SameState NG3 #81] (Eterna round: R96, puzzle: Same State NG 3)

// result
[27.3, 23.2, 179, 79.9, 171, 28.4]
